System: MCF10A
Assay: perturbation Mahalanobis distance of morphological profile vs DMSO controls (Mahalanobis distance (SD units)); higher = stronger morphological change, active = 7 or more
Conditions: screen batch: Batch1_Mahalanobis_Distance; 72 h
Possible outcomes: true (1) (active), false (0) (inactive)

MOLECULE	CAT
CCN(CC)CCNC(=O)c1c(C)[nH]c(/C=C2\C(=O)Nc3ccc(F)cc32)c1C [Sunitinib] (0.73 µM)	false (0)
CO[C@@H]1[C@@H](OC(N)=O)[C@@H](O)[C@H](Oc2ccc3c(=O)c(NC(=O)c4ccc(O)c(CC=C(C)C)c4)c(O)oc3c2C)OC1(C)C [Novobiocin] (90.8 µM)	false (0)
CCn1cc(C(=O)O)c(=O)c2cc(F)c(N3CCNCC3)nc21 [Enoxacin] (62.4 µM)	true (1)
CCCN[C@H]1CCc2nc(N)sc2C1 [Pramipexole] (0.15 µM)	false (0)
CC(C)(Oc1ccc(Cl)cc1)C(=O)O [Clofibric Acid] (368 µM)	false (0)
CCc1c2c(nc3ccc(OC(=O)N4CCC(N5CCCCC5)CC4)cc13)-c1cc3c(c(=O)n1C2)COC(=O)[C@]3(O)CC [Irinotecan] (16.8 µM)	true (1)
CN1C(CCl)Nc2cc(Cl)c(S(N)(=O)=O)cc2S1(=O)=O (configuration not stated) [Methyclothiazide] (0.5 µM)	false (0)

---

System: MCF10A
Assay: perturbation Mahalanobis distance of morphological profile vs DMSO controls (Mahalanobis distance (SD units)); higher = stronger morphological change, active = 7 or more
Conditions: screen batch: Batch2_Mahalanobis_Distance; 72 h
Possible outcomes: active, inactive

MOLECULE	CAT
OC(c1cc(C(F)(F)F)nc2c(C(F)(F)F)cccc12)C1CCCCN1 (stereo unspecified) [Mefloquine] (23.8 µM)	active
CCS(=O)(=O)CCn1c([N+](=O)[O-])cnc1C [Tinidazole] (192.9 µM)	inactive
C[C@@H]1CCC2[C@@H](C)[C@@H](O)O[C@@H]3OC4(C)CC[C@@H]1[C@@]23OO4 (stereo partly specified) [Dihydroartemisinin] (13.2 µM)	active
CC1(C)C[C@@H]1C(=O)N/C(=C\CCCCSC[C@H](N)C(=O)O)C(=O)O [Cilastatin] (153.4 µM)	inactive
Cc1cc2cc3c(C)cc(=O)oc3c(C)c2o1 [Trioxsalen] (0.07 µM)	inactive
CO[C@H]1CC2CC[C@@H](C)[C@@](O)(O2)C(=O)C(=O)N2CCCC[C@H]2C(=O)O[C@H]([C@H](C)C[C@@H]2CC[C@@H](OCCO)[C@H](OC)C2)CC(=O)[C@H](C)/C=C(\C)[C@@H](O)[C@@H](OC)C(=O)[C@H](C)C[C@H](C)/C=C/C=C/C=C/1C [Everolimus] (0.95 µM)	active

---

Below, each entry is listed alongside its reported perturbation Mahalanobis distance.
Tested on: MCF10A
Assay: perturbation Mahalanobis distance of morphological profile vs DMSO controls (Mahalanobis distance (SD units)); higher = stronger morphological change, active = 7 or more
Details: screen batch: Batch1_Mahalanobis_Distance; 72 h
QUANTITY NAME: perturbation Mahalanobis distance

> print(dat)
                                    compound  endpoint.value
 1  OC[C@H]1O[C@@H](n2cnc3c2NC=NC[C@H]3O)C[C@@H]1O [Pentostatin] (55.9 µM)            4.44
 2  O=C1C(=O)c2ccccc2C(O)=C1C1CCC(c2ccc(Cl)cc2)CC1 (configuration not stated) [Atovaquone] (37.9 µM)            3.34
 3  O=C1CC2(CCCC2)C(O)C(=O)N1CCCCN1CCN(c2ncccn2)CC1 (configuration not stated) [6-Hydroxybuspirone] (0.05 µM)            3.46
 4      O=C(O)P(=O)(O)O [Foscarnet] (887 µM)            3.95
 5  CC(c1cc2ccccc2s1)N(O)C(N)=O (configuration not stated) [Zileuton] (105.4 µM)            3.71
 6     NCCc1ccc(O)c(O)c1 [Dopamine] (2.5 µM)            4.23
 7  CC12CC3CC(C)(C1)CC(N)(C3)C2 [Memantine] (1.3 µM)            4.28
 8  COc1cc2nc(N3CCN(C(=O)C4CCCO4)CC3)nc(N)c2cc1OC (configuration not stated) [Terazosin] (1 µM)            2.35
 9  C[C@@](N)(Cc1ccc(O)c(O)c1)C(=O)O [Methyldopa] (118.4 µM)            3.81
10  CC(N=C(NC#N)Nc1ccncc1)C(C)(C)C (configuration not stated) [Pinacidil] (8.3 µM)            4.94
11  CCCCN(CCCC)CCC(O)c1cc2c(Cl)cc(Cl)cc2c2cc(C(F)(F)F)ccc12 (configuration not stated) [Halofantrine] (63.9 µM)            7.37
12  COC(=O)C1=C(C)NC(C)=C(C(=O)OCC(C)C)C1c1ccccc1[N+](=O)[O-] (configuration not stated) [Nisoldipine] (13 µM)            2.36
13  S=c1nc[nH]c2nc[nH]c12 [6-Mercaptopurine] (9.9 µM)            2.97
14  CC(C)(Sc1cc(C(C)(C)C)c(O)c(C(C)(C)C)c1)Sc1cc(C(C)(C)C)c(O)c(C(C)(C)C)c1 [Probucol] (12.58 µM)            2.88
15  Cc1ccccc1C(=O)Nc1ccc(C(=O)N2CCC[C@@H](O)c3cc(Cl)ccc32)c(C)c1 [Tolvaptan] (11.1 µM)            2.12
16  COc1ccccc1OCC(O)CN1CCN(CC(=O)Nc2c(C)cccc2C)CC1 (configuration not stated) [Ranolazine] (37.4 µM)            2.73
17  CC1(C)O[C@@H]2[C@@H](CO[C@@]3(COS(N)(=O)=O)OC(C)(C)O[C@@H]23)O1 [Topiramate] (76.6 µM)            2.96

---

Test system: MCF10A
Experiment: perturbation Mahalanobis distance of morphological profile vs DMSO controls (Mahalanobis distance (SD units)); higher = stronger morphological change, active = 7 or more
Conditions: screen batch: Batch1_Mahalanobis_Distance; 72 h
Below, each entry is listed alongside its reported perturbation Mahalanobis distance.

COMPOUND	perturbation Mahalanobis distance
CN(CCOc1ccc(CC2SC(=O)NC2=O)cc1)c1ccccn1 (centres undefined) [Rosiglitazone] (4.2 µM)	2.03
CC(=O)Nc1nnc(S(N)(=O)=O)s1 [Acetazolamide] (90 µM)	3.52
CNC[C@H](O)c1ccc(O)c(O)c1 [Epinephrine] (27.3 µM)	2.67
COc1cnc(NS(=O)(=O)c2ccc(N)cc2)nc1 [Sulfameter] (322.8 µM)	6.64
CCCc1nc(C(C)(C)O)c(C(=O)O)n1Cc1ccc(-c2ccccc2-c2nn[nH]n2)cc1 [Olmesartan] (10 µM)	2.22
NC(N)=NC(=O)c1nc(Cl)c(N)nc1N [Amiloride] (1.1 µM)	5.52
C[N+](C)(C)CCOC(=O)CCC(=O)OCC[N+](C)(C)C [Succinylcholine Chloride] (12.65 µM)	2.23
CC1CNc2c(cccc2S(=O)(=O)N[C@@H](CCCN=C(N)N)C(=O)N2CC[C@@H](C)C[C@@H]2C(=O)O)C1 (some centres undefined) [Argatroban] (6.9 µM)	3.61
Nc1nc2ccc(OC(F)(F)F)cc2s1 [Riluzole] (4.3 µM)	2.51

---

Below, each entry is listed alongside its reported perturbation Mahalanobis distance.
Tested on: MCF10A
Experiment: perturbation Mahalanobis distance of morphological profile vs DMSO controls (Mahalanobis distance (SD units)); higher = stronger morphological change, active = 7 or more
Details: screen batch: Batch2_Mahalanobis_Distance; 72 h
QUANTITY NAME: perturbation Mahalanobis distance

> print(dat)
                                   compound  assay.target  endpoint.value
1  CC(=O)O[C@]1(C(C)=O)CC[C@H]2[C@@H]3CCC4=CC(=O)CCC4=C3[C@@H](c3ccc(N(C)C)cc3)C[C@@]21C [Ulipristal Acetate] (3.9 µM)        MCF10A            10.4
2  Clc1ccc(C(c2ccccc2Cl)C(Cl)Cl)cc1 (centres undefined) [Mitotane] (62.5 µM)        MCF10A            4.02
3  COc1cc2nc(N3CCN(C(=O)C4CCCO4)CC3)nc(N)c2cc1OC (centres undefined) [Terazosin] (1 µM)        MCF10A            2.82
4  OC(CCCN1CCCCC1)(c1ccccc1)c1ccccc1 [Diphenidol] (2.6 µM)        MCF10A            3.04
5  CN1C(CCl)Nc2cc(Cl)c(S(N)(=O)=O)cc2S1(=O)=O (centres undefined) [Methyclothiazide] (0.5 µM)        MCF10A            2.45
6  O=NN(CCCl)C(=O)NCCCl [Carmustine] (0.2 µM)        MCF10A            2.55
7  COCCCC/C(=N\OCCN)c1ccc(C(F)(F)F)cc1 [Fluvoxamine] (3.9 µM)        MCF10A            2.47
8  CCN(CC)CCNC(=O)c1c(C)[nH]c(/C=C2\C(=O)Nc3ccc(F)cc32)c1C [Sunitinib] (0.73 µM)        MCF10A            2.88
9  O=C(O)c1cnccn1 [Pyrazinoic Acid] (604.4 µM)        MCF10A            2.79

FYI, the data here is from the supplement of paper PMC6853941.
